test system: MALME-3M melanoma; test: NCI tumour cell line growth inhibition, 48 h; in the data active = GI50 below about 0.43 µM; inactive = the rest
Respond only with the outcome that fits, drawn from class 1 (active), class 0 (inactive)

# count of solved cases: 2
{"columns": ["smiles.data", "target", "category.label"],
 "data": [
  ["O=C1c2cc3c(cc2-c2c1c1ccc(F)cc1c(=O)n2C[C@H](O)[C@@H](O)[C@H](O)CO)OCO3", "MALME-3M melanoma", "class 1"],
  ["N#CC(C#N)=C/C=C(\\Sc1nc2ccccc2s1)c1ccc(Cl)cc1", "MALME-3M melanoma", "class 0"]
]}

Consider now this further compound.
Challenge: Each compound tested received a call. Report the one for O=C(Nc1ccc(Oc2ccc(Nc3nc4ccccc4s3)cc2)cc1)Nc1ccc(Cl)c(C(F)(F)F)c1 .
Response given: class 0
